- Test system: 233499-124-R-J3-PDC complex spheroid viability;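 note: spheroids exposed to the drug combinations for seven days; percent viability relative to DMSO vehicle control wells taken as 100%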
- METHOD NOTES: Anticancer human tumor 233499-124-R-J3-PDC patient-derived colon adenocarcinoma cell line growth inhibition [CLK]
- EXPERIMENTAL PARAMETERS: second compound 1 µM; first compound 0.0316 µM; stronger effect = lower value
REPORTED PROPERTY: viability, T/C (%)

[[record]]
compound = "Nc1ccn(C2OC(CO)C(O)C2(F)F)c(=O)n1 (stereo unspecified) + CN1CCN(c2cc(C(=O)Nc3cc4cc(-c5cnn(C)c5)ccc4cn3)ccn2)CC1"
uom = "%"
test_value = 1.31

[[record]]
compound = "C#Cc1c(F)ccc2cc(O)cc(-c3ncc4c(N5CC6CCC(C5)N6)nc(OCC56CCCN5CC(F)C6)nc4c3F)c12 (stereo unspecified) + CNC(=O)c1ccc(Nc2nc(OC3CCCC3)c3c(-c4ccc5nc(C)oc5c4)c[nH]c3n2)c(OC)c1"
uom = "%"
test_value = 78.3

[[record]]
compound = "O=c1[nH]cc(F)c(=O)[nH]1 + CNC(=O)c1ccc(Nc2nc(OC3CCCC3)c3c(-c4ccc5nc(C)oc5c4)c[nH]c3n2)c(OC)c1"
uom = "%"
test_value = 70.6

[[record]]
compound = "C=C(F)C(=O)N1CCN(c2nc(OCC3CCCN3C)nc3c2CCN(c2cccc4cccc(Cl)c24)C3)CC1CC#N (stereo unspecified) + CN1CCN(c2cc(C(=O)Nc3cc4cc(-c5cnn(C)c5)ccc4cn3)ccn2)CC1"
uom = "%"
test_value = 1.94

[[record]]
compound = "Nc1ccn(C2OC(CO)C(O)C2(F)F)c(=O)n1 (stereo unspecified) + CNC(=O)c1ccc(Nc2nc(OC3CCCC3)c3c(-c4ccc5nc(C)oc5c4)c[nH]c3n2)c(OC)c1"
uom = "%"
test_value = 63

[[record]]
compound = "CC(CO)NC(=O)c1cc(-c2ccc(Cl)cc2)nn(-c2cnn(C)c2)c1=O (stereo unspecified) + CN1CCN(c2cc(C(=O)Nc3cc4cc(-c5cnn(C)c5)ccc4cn3)ccn2)CC1"
uom = "%"
test_value = 1.24

[[record]]
compound = "C=C(F)C(=O)N1CCN(c2nc(OCC3CCCN3C)nc3c2CCN(c2cccc4cccc(Cl)c24)C3)CC1CC#N (stereo unspecified) + CNC(=O)c1ccc(Nc2nc(OC3CCCC3)c3c(-c4ccc5nc(C)oc5c4)c[nH]c3n2)c(OC)c1"
uom = "%"
test_value = 71.4

[[record]]
compound = "O=C(c1cc(Cc2n[nH]c(=O)c3ccccc23)ccc1F)N1CCN(C(=O)C2CC2)CC1 + CNC(=O)c1ccc(Nc2nc(OC3CCCC3)c3c(-c4ccc5nc(C)oc5c4)c[nH]c3n2)c(OC)c1"
uom = "%"
test_value = 67.6

[[record]]
compound = "CCCS(=O)(=O)Nc1ccc(F)c(C(=O)c2c[nH]c3ncc(-c4ccc(Cl)cc4)cc23)c1F + CNC(=O)c1ccc(Nc2nc(OC3CCCC3)c3c(-c4ccc5nc(C)oc5c4)c[nH]c3n2)c(OC)c1"
uom = "%"
test_value = 90.1

[[record]]
compound = "Nc1ccccc1NC(=O)c1ccc(CNC(=O)OCc2cccnc2)cc1 + CN1CCN(c2cc(C(=O)Nc3cc4cc(-c5cnn(C)c5)ccc4cn3)ccn2)CC1"
uom = "%"
test_value = 0.46

[[record]]
compound = "COc1cccc2c1C(=O)c1c(O)c3c(c(O)c1C2=O)CC(O)(C(=O)CO)CC3OC1CC(N)C(O)C(C)O1 (stereo unspecified) + CN1CCN(c2cc(C(=O)Nc3cc4cc(-c5cnn(C)c5)ccc4cn3)ccn2)CC1"
uom = "%"
test_value = 0.46

